- ASSAY SYSTEM: T1, human TREM2 (human) (UniProt Q9NZC2)
- T1 sequence (looked up): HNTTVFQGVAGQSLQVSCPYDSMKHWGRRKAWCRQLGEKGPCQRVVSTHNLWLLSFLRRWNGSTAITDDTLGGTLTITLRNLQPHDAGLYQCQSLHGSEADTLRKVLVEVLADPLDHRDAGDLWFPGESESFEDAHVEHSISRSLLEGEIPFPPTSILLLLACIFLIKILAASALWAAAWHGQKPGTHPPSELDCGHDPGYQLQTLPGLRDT
- ASSAY REMARKS: 1st screen, 110 nM Ab
METRIC: Binding Signal (fold over 6E7 parental antibody) (fold)
Report as a plain number; the unit fold is understood.

Sample answers from the record:
BINDER	VAL
6E7 variant V9 (antibody, V domains shown) VH: EVQLVQSGAEVKKPGESLKISCKGSGYSFTSYWIAWVRQMPGKGLEWMGIIYPGDSDTRYSPSFQGQVTISADKSISTAYLQWSSLKASDTAMYFCARQRGFYYDSSDYFDYWGQGTLVTVSS VL: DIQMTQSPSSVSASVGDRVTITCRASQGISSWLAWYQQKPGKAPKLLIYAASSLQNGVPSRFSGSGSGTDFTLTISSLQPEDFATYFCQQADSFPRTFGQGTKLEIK	0.67
6E7 variant V44 (antibody, V domains shown) VH: EVQLVQSGAEVKKPGESLKISCKGSGYSFTSYWIAWVRQMPGKGLEWMGIIYPSDSDTRYSPSFQGQVTISADKSISTAYLQWSSLKASDTAMYFCARQRTFYYDSSDYFDYWGQGTLVTVSS VL: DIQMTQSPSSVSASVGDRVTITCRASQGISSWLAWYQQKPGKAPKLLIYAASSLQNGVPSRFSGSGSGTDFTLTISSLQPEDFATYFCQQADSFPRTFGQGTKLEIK	0.65

Lab note: next binder to report on.
Problem: Which value of Binding Signal (fold over 6E7 parental antibody) has been reported for 6E7 variant V35 (antibody, V domains shown) VH: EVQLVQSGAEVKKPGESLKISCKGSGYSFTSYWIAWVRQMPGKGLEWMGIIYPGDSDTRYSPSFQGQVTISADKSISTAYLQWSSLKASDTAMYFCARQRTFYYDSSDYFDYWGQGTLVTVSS VL: DIQMTQSPSSVSASVGDRVTITCRASQGISSWLAWYQQKPGKAPKLLIYAASSLQNGVPSRFSGSGSGTDFTLTISSLQPEDFATYFCQQAYSFPRTFGQGTKLEIK in the records?
Solution: 0.21
